TESTED ON: T1, HLA-A*03:01 (human)
T1 construct: MHC class I monomer first loaded with a UV-sensitive peptide that is cleaved by UV irradiation and exchanged for the test peptide; captured on streptavidin plates; also called peptide-receptive MHC molecules
MEASUREMENT DESCRIPTION: UV-ligand exchange, anti-b2m ELISA; peptide exchange yield grade (>10% +, >20% ++, >50% +++, >75% ++++)
Source text: Candidate peptides for T cell based therapies according to the present invention were further tested for their MHC binding capacity (affinity). The individual peptide-MHC complexes were produced by UV-ligand exchange, where a UV-sensitive peptide is cleaved upon UV-irradiation and exchanged with the peptide of interest as analyzed. Only peptide candidates that can effectively bind and stabilize the peptide-receptive MHC molecules prevent dissociation of the MHC complexes. […]
OBSERVED PROPERTY: peptide exchange yield

Recorded peptide exchange yield, per entry:
[
  {
    "BINDER": "GLSTILLYH",
    "peptide exchange yield": "> 75%"
  },
  {
    "BINDER": "VVFPFPVNKR",
    "peptide exchange yield": "50 to 75%"
  },
  {
    "BINDER": "VSLSKMLKK",
    "peptide exchange yield": "50 to 75%"
  },
  {
    "BINDER": "LIGPLLICK",
    "peptide exchange yield": "> 75%"
  }
]

Item: `GISNPITTSK` | peptide exchange yield: > 75%

Looking up `KVASFTVIGY` , I see its peptide exchange yield listed as 50 to 75%

// sample `RLLPGKVVWK` , its peptide exchange yield was > 75%

// `SIYKKAVYR` : peptide exchange yield value = > 75%
